Measured Percent Control by item
- Tested on: TBK1
- condition_details: Compound Concentration (nM):1000;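 further: KINOMEscan scanMAX binding as percent activity remaining versus control; lower means stronger binding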

- compound: "COc1cc(N2CCN(C(C)C)CC2)ccc1Nc1nc(Nc2ccc(F)cc2C(=O)NC[C@@H](O)CO)c2cc[nH]c2n1 [GSK1392956A]"
  tgt: "TBK1"
  Percent Control: "100%"
- compound: "NS(=O)(=O)c1ccc(N/N=C2\\C(=O)Nc3ccc(C(=O)NCCc4c[nH]cn4)cc32)cc1 [GW300660X]"
  tgt: "TBK1"
  Percent Control: "72%"
- compound: "Cl.O=C(Nc1ccc(Oc2ccc3[nH]c(NC(=O)c4ccccc4)nc3c2)cc1)Nc1cc(C(F)(F)F)ccc1F [GW709042A]"
  tgt: "TBK1"
  Percent Control: "88%"
- compound: "C[C@@H](Oc1cc(-n2cnc3ccc(OC4CCN(C)CC4)cc32)sc1C(N)=O)c1ccccc1Cl [GSK579289A]"
  tgt: "TBK1"
  Percent Control: "67%"
- compound: "COc1ccc2cc(-c3c(-c4ccncc4)nc(-c4ccc(S(C)(=O)=O)cc4C)n3C)ccc2c1 [SB-633825]"
  tgt: "TBK1"
  Percent Control: "65%"
- compound: "COc1cccc(-c2c[nH]c3c(N/N=C/c4ccncc4)ncnc23)c1 [GW814408X]"
  tgt: "TBK1"
  Percent Control: "71%"
- compound: "Cl.c1ccc(Cc2nc3ccc(Nc4ncnc5ccccc45)cc3[nH]2)cc1 [GR269666A]"
  tgt: "TBK1"
  Percent Control: "100%"

---

- System: CSF1R
- condition_details: Compound Concentration (nM):1000
Measured Percent Control by item

- compound: "COc1cc2ncnc(Nc3ccc4c(cnn4Cc4ccccc4)c3)c2cc1OC.Cl [GW282449A]"
  Percent Control (%): 100
- compound: "C/C(Nc1ccc(S(N)(=O)=O)cc1)=C1/C(=O)Nc2ccccc21 [GW335962X]"
  Percent Control (%): 100
- compound: "COc1ccccc1-c1cc(/C=C2\\C(=O)Nc3ncc(Br)cc32)cc(Br)c1O [GW442130X]"
  Percent Control (%): 100
- compound: "CC1=C(C(=O)Nc2ccc3[nH]ncc3c2)C(c2ccc3ccccc3c2)CC(=O)N1 (centres unmarked) [GSK270822A]"
  Percent Control (%): 82
- compound: "COc1ccc2cc(-c3c(-c4ccncc4)nc(-c4ccc(S(C)(=O)=O)cc4C)n3C)ccc2c1"
  Percent Control (%): 93
- compound: "COc1cc2ncn(-c3cc(O[C@H](C)c4ccccc4Cl)c(C(N)=O)s3)c2cc1OC [GSK237701A]"
  Percent Control (%): 63
- compound: "O=C(Nc1n[nH]c2nc(-c3ccc(O)cc3)c(Br)cc12)C1CC1"
  Percent Control (%): 100
- compound: "Cc1cc(O)cc(C)c1/C=C/c1cncc(C(N)=O)c1 [GW435821X]"
  Percent Control (%): 34
- compound: "Nc1ncnc2occ(-c3ccc(NC(=O)Nc4cc(C(F)(F)F)ccc4F)cc3)c12 [GW770249X]"
  Percent Control (%): 0.2
- compound: "COc1cccc(-c2c[nH]c3c(N/N=C/c4ccncc4)ncnc23)c1 [GW814408X]"
  Percent Control (%): 46
- compound: "CN(C)CCNC(=O)Nc1ccc(N(C)c2ccnc(Nc3ccc(CS(C)(=O)=O)cc3)n2)cc1.Cl [GW830900A]"
  Percent Control (%): 0.6
- compound: "COc1cc(/C=N/Nc2ncnc3[nH]ncc23)ccc1O [GW578748X]"
  Percent Control (%): 93
- compound: "CN(C)c1cc2c(Nc3ccc4c(cnn4Cc4ccccc4)c3)ncnc2cn1 [GW282974X]"
  Percent Control (%): 100
- compound: "CN1CCN(C(=O)c2ccc(NC(=O)Nc3ccc(N(C)c4ccnc(Nc5ccc(CS(C)(=O)=O)cc5)n4)cc3)cc2)CC1.Cl [GW830263A]"
  Percent Control (%): 0

---

Measured Percent Control by item
- System: AMPK-alpha2
- Construct: gene PRKAA2
- condition_details: Compound Concentration (nM):1000
property_measured: Percent Control

- molecule: "COc1ccccc1-c1cc(/C=C2\\C(=O)Nc3ncc(Br)cc32)cc(Br)c1O [GW442130X]"
  value: "94%"
- molecule: "NS(=O)(=O)c1ccc(Nc2ncc(-c3ccccc3)o2)cc1 [GW572399X]"
  value: "95%"
- molecule: "COc1cc(N2CCN(C(C)C)CC2)ccc1Nc1nc(Nc2ccc(F)cc2C(=O)NC[C@@H](O)CO)c2cc[nH]c2n1 [GSK1392956A]"
  value: "100%"
- molecule: "Nc1ncnc2occ(-c3ccc(NC(=O)Nc4cc(C(F)(F)F)ccc4F)cc3)c12 [GW770249X]"
  value: "86%"
- molecule: "Cl.O=C(Nc1ccc(Oc2ccc3[nH]c(NC(=O)c4ccco4)nc3c2)cc1)Nc1cc(C(F)(F)F)ccc1F [GW683134A]"
  value: "82%"

---

- Test system: TRPM6
- condition_details: Compound Concentration (nM):1000

- molecule: "CC(C)COC(=O)c1ccc2c(c1)/C(=C/Nc1ccc(S(N)(=O)=O)cc1)C(=O)N2 [GW416981X]"
  unit: "%"
  Percent Control: 100
- molecule: "CCc1ccc(Oc2nccc(-c3c(-c4ccc(F)cc4)ncn3C3CCNCC3)n2)cc1 [SB-242719]"
  unit: "%"
  Percent Control: 100
- molecule: "COc1ccc2[nH]c3c4[nH]c5ccc(OC)cc5c4c4c(c3c2c1)C(=O)NC4=O [GW296115X]"
  unit: "%"
  Percent Control: 79
- molecule: "COC(=O)Nc1nc2ccc(Oc3ccc(NC(=O)Nc4cc(C(F)(F)F)ccc4F)cc3)cc2s1.Cl [GW693917A]"
  unit: "%"
  Percent Control: 73
- molecule: "CCS(=O)(=O)c1ccc(OC)c(Nc2ncc(-c3cccc(F)c3)o2)c1 [GW621970X]"
  unit: "%"
  Percent Control: 88

---

- Tested on: GCN2(Kin.Dom.2,S808G)
- Construct: gene EIF2AK4
- condition_details: Compound Concentration (nM):1000
Measured Percent Control by item

- compound: "Cl.O=C(Nc1ccc(Oc2ccc3[nH]c(NC(=O)c4ccccc4)nc3c2)cc1)Nc1cc(C(F)(F)F)ccc1F [GW709042A]"
  Percent Control, %: 84
- compound: "NS(=O)(=O)c1ccc(N/N=C2\\C(=O)Nc3ccc(Cl)cc32)cc1 [GW280670X]"
  Percent Control, %: 100
- compound: "COc1ccc2[nH]c3c4[nH]c5ccc(OC)cc5c4c4c(c3c2c1)C(=O)NC4=O [GW296115X]"
  Percent Control, %: 74
- compound: "Cl.O=S1CCN(Cc2ccc(-c3ccc4ncnc(Nc5ccc(OCc6ccccc6)c(F)c5)c4c3)o2)CC1 [GW576924A]"
  Percent Control, %: 100

---

- Tested on: PIK3CA(M1043I)
- condition_details: Compound Concentration (nM):1000
Measured Percent Control by item

- compound: "COc1cc2ncnc(Nc3ccc4c(cnn4Cc4ccccc4)c3)c2cc1OC.Cl [GW282449A]"
  Percent Control: "100%"
- compound: "COc1cc(C)c(N(C)C(=O)CN(C)C)cc1Nc1nc(Nc2cccc(F)c2C(N)=O)c2cc[nH]c2n1 [GSK2219385]"
  Percent Control: "100%"
- compound: "COc1cc2ncn(-c3cc(O[C@H](C)c4ccccc4Cl)c(C(N)=O)s3)c2cc1OC [GSK237701A]"
  Percent Control: "52%"
- compound: "Cl.O=C(Nc1ccc(Oc2ccc3[nH]c(NC(=O)c4ccco4)nc3c2)cc1)Nc1cc(C(F)(F)F)ccc1F [GW683134A]"
  Percent Control: "100%"
- compound: "CC(C)COC(=O)c1ccc2c(c1)/C(=C/Nc1ccc(S(N)(=O)=O)cc1)C(=O)N2 [GW416981X]"
  Percent Control: "87%"
- compound: "COc1ccc2c(-c3ccnc(Nc4cccc(OC(F)(F)F)c4)n3)cnn2n1 [GW810372X]"
  Percent Control: "100%"
- compound: "CN1CCN(C(=O)c2ccc(NC(=O)Nc3ccc(N(C)c4ccnc(Nc5ccc(CS(C)(=O)=O)cc5)n4)cc3)cc2)CC1.Cl [GW830263A]"
  Percent Control: "100%"
- compound: "COc1cc(C=NNc2ncnc3c2cnn3-c2ccccc2)ccc1O [GW513184X]"
  Percent Control: "59%"

---

- Test system: LIMK2
- condition_details: Compound Concentration (nM):1000

- compound: "CCn1c(-c2nonc2N)nc2c(C#CC(C)(C)O)nc(OCCNC)cc21.Cl"
  Percent Control / %: 100
- compound: "CC1=C(C(=O)Nc2ccc3[nH]ncc3c2)C(c2ccc3ccccc3c2)CC(=O)N1 (centres unmarked) [GSK270822A]"
  Percent Control / %: 88
- compound: "C/C(Nc1ccc(S(N)(=O)=O)cc1)=C1/C(=O)Nc2ccccc21 [GW335962X]"
  Percent Control / %: 94
- compound: "CC1=C(C(=O)Nc2ccc3[nH]ncc3c2)C(c2ccc(Cl)c(Cl)c2)CC(=O)N1 (centres unmarked) [GSK299115A]"
  Percent Control / %: 63
- compound: "CC(C)COC(=O)c1ccc2c(c1)/C(=C/Nc1ccc(S(N)(=O)=O)cc1)C(=O)N2 [GW416981X]"
  Percent Control / %: 100
- compound: "CCS(=O)(=O)c1ccc(OC)c(Nc2ncc(-c3cccc(OC)c3)o2)c1 [GW580509X]"
  Percent Control / %: 100
- compound: "NS(=O)(=O)c1ccc(N/N=C2\\C(=O)Nc3ccc(-c4cnco4)cc32)cc1"
  Percent Control / %: 67
- compound: "O=C1Nc2ccc(C(=O)c3ccco3)cc2C1=Cc1cc(Cl)c(O)c(Cl)c1 [GW406108X]"
  Percent Control / %: 100
- compound: "COc1cc(C)c(N(C)C(=O)CN(C)C)cc1Nc1nc(Nc2cccc(F)c2C(N)=O)c2cc[nH]c2n1"
  Percent Control / %: 96
- compound: "NS(=O)(=O)c1ccc(N/N=C2\\C(=O)Nc3ccc(Cl)cc32)cc1 [GW280670X]"
  Percent Control / %: 100
- compound: "CCc1ccc(Oc2nccc(-c3c(-c4ccc(F)cc4)ncn3C3CCNCC3)n2)cc1"
  Percent Control / %: 100
- compound: "NS(=O)(=O)c1ccc(Nc2ncc(-c3ccccc3)o2)cc1 [GW572399X]"
  Percent Control / %: 100
- compound: "Nc1ncnc2occ(-c3ccc(NC(=O)Nc4cc(C(F)(F)F)ccc4F)cc3)c12 [GW770249X]"
  Percent Control / %: 94
- compound: "C[C@@H](Oc1cc(-n2cnc3ccc(OC4CCN(C)CC4)cc32)sc1C(N)=O)c1ccccc1Cl [GSK579289A]"
  Percent Control / %: 100
- compound: "COC(=O)Nc1nc2ccc(Oc3ccc(NC(=O)Nc4cc(C(F)(F)F)ccc4F)cc3)cc2s1.Cl [GW693917A]"
  Percent Control / %: 62
- compound: "Cl.c1ccc(Cc2nc3ccc(Nc4ncnc5ccccc45)cc3[nH]2)cc1 [GR269666A]"
  Percent Control / %: 100
- compound: "COc1cc(N2CCN(C(C)C)CC2)ccc1Nc1nc(Nc2ccc(F)cc2C(=O)NC[C@@H](O)CO)c2cc[nH]c2n1 [GSK1392956A]"
  Percent Control / %: 75
